Test system: NCI/ADR-RES ovarian
assay summary: NCI-60 one-dose screen, 48 h (100 = growth as untreated, 0 = no growth, -100 = all killed)
stated conditions: 10 µM unless noted
The panel holds about 83,000 compounds, 20% with a hit somewhere; the sample as a whole holds those more often.
property: growth (%)
A number alone suffices; assume %.

Before answering, review these 10 worked examples.
- compound: "Cn1ccnc1C(=O)/C=C/c1ccc(CC(=O)Nc2ccc(F)cc2)cc1"
  property: "growth"
  output unit: "%"
  value measured: 21.7
- compound: "COc1ccc(CCn2cncc2-c2c[nH]c3ccccc23)cc1"
  property: "growth"
  output unit: "%"
  value measured: 87.6
- compound: "Cc1cccc(NC(=O)Nc2ccc(-c3ccc4c(c3)NC(=O)/C4=C\\c3ccc[nH]3)cc2)c1"
  property: "growth"
  output unit: "%"
  value measured: 93.8
- compound: "c1ccc2c(-c3nccs3)c[nH]c2c1"
  property: "growth"
  output unit: "%"
  value measured: 103
- compound: "Cc1cc(C)c(S(=O)(=O)Oc2ccccc2[N+](=O)[O-])c(C)c1"
  property: "growth"
  output unit: "%"
  value measured: 8.3
- compound: "COc1cc2nc(-c3ccc(Cl)cc3)cc(OCCCN3CCOCC3)c2cc1OC"
  property: "growth"
  output unit: "%"
  value measured: 44.6
- compound: "COc1ccc(C(=O)c2nc3ccccc3n2CC(=O)c2ccc(Cl)cc2)cc1"
  property: "growth"
  output unit: "%"
  value measured: -45.6
- compound: "NS(=O)(=O)c1ccc(CCN2C(=O)C3C(C2=O)C2(Cl)C(Cl)=C(Cl)C3(Cl)C2(Cl)Cl)cc1 (stereo not drawn)"
  property: "growth"
  output unit: "%"
  value measured: 98.7
- compound: "COC(=O)c1ccc2c(c1)[n+](=O)c(C(C)=O)c(C(F)(F)F)n2[O-]"
  property: "growth"
  output unit: "%"
  value measured: -40.7
- compound: "O=C1Nc2ccccc2/C1=C\\c1c(-c2ccc(F)cc2)nc2ccccn12"
  property: "growth"
  output unit: "%"
  value measured: 35.4

Q) Please list growth recorded for the compound CCCOc1ccc(/C=N/Nc2cc(C)nc3ccc(Br)cc23)cc1
A) 97.2

Q) Please list growth recorded for the compound Nc1n[nH]c2cccc(C#Cc3cccc(C(=O)Nc4cccc(C(F)(F)F)c4)c3)c12
A) 80.6

Q) Please list growth recorded for the compound CCNc1nc2ccc(Nc3ccnc4cc(Cl)ccc34)cc2[nH]1
A) 95.8

---

System: T-47D breast
assay summary: NCI-60 one-dose screen, 48 h (100 = growth as untreated, 0 = no growth, -100 = all killed)
stated conditions: 10 µM unless noted
This is part of a sample that, as a whole, favours compounds with a hit. Of some 83,000 tested, about 20% had one in any assay.
Response field label takes MET when growth is strictly below 40% and NOT MET in all other cases.

These recorded examples may help you get a feel for the data.
- mol smiles: "CN1[C@@H]2CC[C@H]1/C(=C\\c1ccccc1)C(=O)/C2=C/c1ccccc1"
  measurement target: "T-47D breast"
  label class: "NOT MET"
- mol smiles: "O=C(O)c1ccc(NCc2cn(-c3ccc(C(F)(F)F)cc3)nc2-c2ccc(C(=O)O)cc2)cc1"
  measurement target: "T-47D breast"
  label class: "NOT MET"
- mol smiles: "CCCCCC(=O)Oc1ccc(/C(=C(/C)Cc2ccc(OC)cc2)c2ccc(OCCCN(C)C)cc2)cc1"
  measurement target: "T-47D breast"
  label class: "NOT MET"
- mol smiles: "O=C(Nc1ncc(Cc2cc(Cl)ccc2Cl)s1)c1cccs1"
  measurement target: "T-47D breast"
  label class: "NOT MET"

Now consider the entry below.
Q) growth under 40%? Item: NC(=NCCCOc1ccc(F)cc1)Nc1ccc(Cl)cc1
A) MET

---

Test system: SK-MEL-2 melanoma
assay summary: NCI-60 one-dose screen, 48 h (100 = growth as untreated, 0 = no growth, -100 = all killed)
stated conditions: 10 µM unless noted
This is part of a sample that, as a whole, favours compounds with a hit. Of some 83,000 tested, about 20% had one in any assay.
Response field label takes rule met when growth is strictly below 70% and rule not met in all other cases.

These recorded examples may help you get a feel for the data.
- compound: "COc1ccc(C(C)=O)c(OC)c1"
  measurement target: "SK-MEL-2 melanoma"
  label class: "rule not met"
- compound: "N/C(=N\\C(N)=N\\c1nc2ccccc2s1)c1cnccn1"
  measurement target: "SK-MEL-2 melanoma"
  label class: "rule met"
- compound: "CCSCC1CC(O)(c2ccccc2)CC(c2ccc(F)cc2)O1 (centres undefined)"
  measurement target: "SK-MEL-2 melanoma"
  label class: "rule met"
- compound: "C=C(CBr)[C@@H]1CC[C@]2(COC(C)=O)CC[C@]3(C)[C@H](CC[C@@H]4[C@@]5(C)CCCNC(C)(C)[C@@H]5CC[C@]43C)[C@@H]12"
  measurement target: "SK-MEL-2 melanoma"
  label class: "rule met"
- compound: "Cc1nc2sccn2c1-c1nc2sccn2c1/C=C1/C(=O)Nc2ccccc21"
  measurement target: "SK-MEL-2 melanoma"
  label class: "rule met"
- compound: "Cc1nn(-c2ccccc2)c(Cl)c1/C=C/C(=O)c1ccc(F)cc1"
  measurement target: "SK-MEL-2 melanoma"
  label class: "rule not met"
- compound: "CCN(CC)CC[n+]1cc2cc(OC)c(OC)cc2c2ccc3cc4c(cc3c21)OCO4"
  measurement target: "SK-MEL-2 melanoma"
  label class: "rule met"
- compound: "Cn1nc(CC#N)c2c(=N)n(N)cnc21"
  measurement target: "SK-MEL-2 melanoma"
  label class: "rule not met"
- compound: "CCCCC[n+]1ccc(SCC(=O)N(C)c2ccc(Oc3ccccc3)cc2)c2ccccc21"
  measurement target: "SK-MEL-2 melanoma"
  label class: "rule not met"
- compound: "Cc1cccc(NC(=O)Nc2ccc(-n3cnc4cc(-c5ccc(O)cc5)ccc43)cc2)c1"
  measurement target: "SK-MEL-2 melanoma"
  label class: "rule met"

Q) growth under 70%? Item: O=C(Nc1ccc(-c2ccc3c(c2)NC(=O)/C3=C\c2ccc[nH]2)cc1)NC1CC1
A) rule not met

Q) growth under 70%? Item: CC1(C)CC[C@]23CC[C@]4(C)[C@H](CC[C@@H]5[C@@]6(C)CCCNC(C)(C)[C@@H]6CC[C@]54C)[C@H]2[C@H]1OC3
A) rule met

Q) growth under 70%? Item: CCOC(=O)Oc1c(OC)cc(C(=O)c2ccc(OC)c(O)c2OC)cc1OC
A) rule met

Q) growth under 70%? Item: COc1cc(/C(C)=C(\c2ccc(Cl)cc2)c2ccc(OCCN(C)C)cc2)ccc1F
A) rule not met

Q) growth under 70%? Item: O=C1Nc2cc(Cl)ccc2/C1=C\c1c(-c2ccc(F)cc2)nc2ccccn12
A) rule met

Q) growth under 70%? Item: CC(C)c1ccc(Nc2ccc3c(OCCCN4CCN(C)CC4)cccc3n2)cc1
A) rule not met

Q) growth under 70%? Item: O=C(NO)c1ccc(-n2nc(-c3ccccc3)c3ccccc32)cc1
A) rule not met

---

Test system: TK-10 renal
assay summary: NCI-60 one-dose screen, 48 h
stated conditions: 10 µM unless noted
Procedure: Growth inhibition of the TK-10 human tumor cell line is measured as a screen for anti-cancer activity. Cells are grown in 96 well plates and exposed to the test compound for 48 hours. Compounds are tested at a single concentration, which is 10^-5 M for most compounds. The reported endpoint is percent growth (GI% or GIPRCNT), where numbers from 0 - 100% represent growth inhibition, and numbers from -100% - 0 represent cell death. For example, a value of 40 represents 60% growth inhibition. […]
The panel holds about 83,000 compounds, 20% with a hit somewhere; the sample as a whole holds those more often. The source made the active and inactive calls. Rule for the calls: active = growth percent below 10; inactive = the rest.
Answer with one of the outcomes given here: true (1) for active, false (0) for inactive

These recorded examples may help you get a feel for the data.
- compound: "COc1ccc(C(=O)C2C(C#N)C(C#N)C3c4ccccc4C=CN23)cc1 (stereo not drawn)"
  label class: "false (0)"
- compound: "O=C(Nc1ccc(NC(=O)c2cc(=O)[nH]c3ccccc23)cc1)Nc1cccc(Cl)c1"
  label class: "false (0)"
- compound: "C=C1C(=O)O[C@H]2[C@H]1CC/C(COC(=O)NCc1c[nH]c3ccc(Br)cc13)=C\\CC[C@@]1(C)O[C@@H]21"
  label class: "true (1)"
- compound: "COC(=O)C1=C(C(=O)ON)[C@@H]2C=C[C@@]1([C@@H](Cc1ccccc1)Nc1ccccc1)O2"
  label class: "true (1)"
- compound: "CC(C)N1C(=O)S/C(=C2/SC(=O)N(C(C)C)C2=O)C1=O"
  label class: "false (0)"
- compound: "Cc1ccc(NC(=O)Cc2ccc(/C=C/C(=O)c3ncc[nH]3)cc2)cc1"
  label class: "false (0)"
- compound: "C/C(=N\\Nc1cc(C)nc2ccc(Br)cc12)c1ccc([N+](=O)[O-])cc1"
  label class: "false (0)"
- compound: "C[C@H]1[C@H](C)CC[C@]2(C(=O)Nc3ccc4ncccc4c3)CC[C@]3(C)C(=CC[C@@H]4[C@@]5(C)CCCNC(C)(C)[C@@H]5CC[C@]43C)[C@H]12"
  label class: "false (0)"
- compound: "COc1cc(NCCCCCNC(C)(C)C)c2ncccc2c1"
  label class: "false (0)"
- compound: "O=C(Nc1ccccc1C(=O)N/N=C(\\c1ccccc1)c1ccccn1)c1ccc(F)cc1"
  label class: "false (0)"

Q) How was O=C(NCCc1ccccc1)Nc1ccc2cc3ccc(NC(=O)NCCc4ccccc4)cc3nc2c1 classified in this test?
A) false (0)
